Reference source: patent US20250195513A1

# tgt: IRAK4 (Homo sapiens)
# Construct: endogenous in cells; host or cells: Karpas299
# Sequence (Q9NWZ3 whole entry): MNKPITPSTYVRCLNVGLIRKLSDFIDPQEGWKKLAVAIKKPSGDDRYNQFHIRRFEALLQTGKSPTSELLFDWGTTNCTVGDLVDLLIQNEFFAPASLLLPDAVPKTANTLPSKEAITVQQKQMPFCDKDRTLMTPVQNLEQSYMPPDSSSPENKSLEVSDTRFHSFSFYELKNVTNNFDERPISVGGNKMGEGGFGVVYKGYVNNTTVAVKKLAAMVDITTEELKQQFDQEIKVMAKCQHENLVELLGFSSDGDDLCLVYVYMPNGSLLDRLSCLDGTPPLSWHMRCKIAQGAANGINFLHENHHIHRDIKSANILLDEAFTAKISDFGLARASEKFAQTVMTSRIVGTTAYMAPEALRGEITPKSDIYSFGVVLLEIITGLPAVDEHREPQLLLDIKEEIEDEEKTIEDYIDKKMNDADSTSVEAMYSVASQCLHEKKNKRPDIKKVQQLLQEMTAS
# test_protocol: IRAK4 Degradation Assay (Karpas299, HTRF/TR-FRET)
# Assay type: cell-based
# assay_context: Karpas-299 cells, 24 h treatment; maximum percentage of degradation; read-out: IRAK4 in Karpas-299 (24 h) Dmax (%)
Entries and their Dmax values follow.
assay_metric: Dmax (%)

[[record]]
compound = "CC(C)(O)c1cc2nn(C3CCC(N4C[C@@H]5CN(C6CN(c7cc(F)c([C@H]8CCC(=O)NC8=O)c(F)c7)C6)C[C@H]5C4)CC3)cc2cc1NC(=O)c1ccc2cc(C#N)cnn12 (stereo partly shown)"
assay_metric = "Dmax"
value_reported = 97

[[record]]
compound = "CC(C)(O)c1cc2nn([C@H]3CC[C@H](N4CCN(C(=O)C5CN(c6cc(F)c(N7CCC(=O)NC7=O)c(F)c6)C5)CC4)CC3)cc2cc1NC(=O)c1ccc2cc(C#N)cnn12"
assay_metric = "Dmax"
value_reported = 98

[[record]]
compound = "CC(C)(O)c1cc2nc(C3CCN(C4CCN(C(=O)[C@@H]5CCN(c6cc(F)c([C@H]7CCC(=O)NC7=O)c(F)c6)C5)CC4)CC3)cn2cc1NC(=O)c1cccc(C(F)(F)F)n1"
assay_metric = "Dmax"
value_reported = 102

[[record]]
compound = "NC(=O)c1nn([C@H]2CC[C@H](N3CCN(C4CC(c5ccc(N[C@@H]6CCC(=O)NC6=O)cc5)C4)CC3)CC2)cc1NC(=O)c1coc(-c2ccnc(NCC(F)(F)F)c2)n1 (stereo partly shown)"
assay_metric = "Dmax"
value_reported = 95

[[record]]
compound = "O=C1CCN(c2ccc(N3CCC(N4CCN(C[C@H]5CC[C@H](n6cc(NC(=O)c7coc(-c8ccnc(NCC(F)(F)F)c8)n7)c(C(F)F)n6)CC5)CC4)CC3)cc2)C(=O)N1"
assay_metric = "Dmax"
value_reported = 6.5

[[record]]
compound = "CC(C)(O)c1cc2nn([C@H]3CC[C@H](N4CCN(C(=O)N5CCN(c6cc(F)c([C@H]7CCC(=O)NC7=O)c(F)c6)CC5)CC4)CC3)cc2cc1NC(=O)c1ccc2cc(C#N)cnn12"
assay_metric = "Dmax"
value_reported = 97

[[record]]
compound = "CC(C)(O)c1cc2nn(C3CCC(N4C[C@@H]5CN(C6CCN(c7cc(F)c([C@H]8CCC(=O)NC8=O)c(F)c7)CC6)C[C@H]5C4)CC3)cc2cc1NC(=O)c1ccc2cc(C#N)cnn12 (stereo partly shown)"
assay_metric = "Dmax"
value_reported = 97

[[record]]
compound = "O=C1CCN(c2ccc(N3CC(C(=O)N4CCN([C@H]5CC[C@H](n6cc(NC(=O)c7coc(-c8ccnc(NCC(F)(F)F)c8)n7)c(C(F)F)n6)CC5)CC4)C3)cc2)C(=O)N1"
assay_metric = "Dmax"
value_reported = 94

[[record]]
compound = "COc1cc2nn([C@H]3CC[C@H](N4CCN(C(=O)C5CN(c6cc(F)c([C@H]7CCC(=O)NC7=O)c(F)c6)C5)CC4)CC3)cc2cc1C(=O)Nc1cnn2cccnc12"
assay_metric = "Dmax"
value_reported = 98

[[record]]
compound = "CC(C)(O)c1cc2nn([C@H]3CC[C@H](N4CCN(C[C@H]5CCN(c6cc(F)c(N7CCC(=O)NC7=O)c(F)c6)C5)CC4)CC3)cc2cc1NC(=O)c1ccc2cc(C#N)cnn12"
assay_metric = "Dmax"
value_reported = 96

